System: HEK-293T
Procedure Details: Multiplex assay against HEK293T
Assay type: toxicity, cell-based
Run Conditions: human, 12 h, 1 µM, compound concentration 1 uM, replicate 1
Reported Property: Total Cell Count
Keep the answer to the number alone.

Example entries begin here.
INSERT INTO assay_data (compound, subject_of_test, value_observed) VALUES
  ('CC(C)c1noc(N2CCC(COc3ccc(-c4ccc(S(C)(=O)=O)cc4)nc3)CC2)n1', 'HEK-293T', 304),
  ('O=c1[nH]c2ccccc2n1C1CCN(Cc2ccc(-c3[nH]c4cc5ncnc5cc4nc3-c3ccccc3)cc2)CC1', 'HEK-293T', 646),
  ('CNC(=O)Nc1ccc(-c2nc(N3CC4CCC(C3)O4)c3cnn(C4CCC5(CC4)OCCO5)c3n2)cc1', 'HEK-293T', 149),
  ('O=C(c1cc2c(cc1F)OC(c1ccc(F)cc1)(c1ccc(Cl)cc1Cl)O2)N1CCOCC1 (stereo not given)', 'HEK-293T', 214);

Next compound, please.
State, in one line, measured Total Cell Count of `Cc1nc(N2CC[C@H](O)C2)ncc1-c1cc(C(F)(F)F)cc2[nH]ncc12`
628

* * *

Readings of Total Cell Count for the listed molecules
Tested on: HEK-293T
Procedure Details: Multiplex assay against HEK293T
Assay type: toxicity, cell-based
Run Conditions: human, 24 h, 1 µM, compound concentration 1 uM, replicate 1
Respond using a number only.

INSERT INTO results (compound_structure, reported_property, value_observed) VALUES
  ('CCc1ccc(OCc2ccccc2C(=O)Nc2ccc3nc(C)cc(N)c3c2)cc1.Cl', 'Total Cell Count', 152),
  ('Cc1ccc(C)c(Oc2ccncc2C(=O)N2CCN(C3CC3)c3ccccc32)c1', 'Total Cell Count', 403),
  ('COC(=O)C1=C(C)NC(C)=C(C(=O)OCCCN2CCC(c3ccccc3)(c3ccccc3)CC2)[C@H]1c1cccc([N+](=O)[O-])c1', 'Total Cell Count', 293);

# ---- query molecule ----
Please report the measured Total Cell Count for `CN1CCN(Cc2ccc(Nc3ncc(Cl)c(Nc4ccccc4S(=O)(=O)N(C)C)n3)cc2)CC1` tested on HEK-293T.
290

* * *

System: Fibroblast
Procedure Details: Multiplex assay against human fibroblast
Assay type: toxicity, cell-based
Run Conditions: 24 h, 1 µM, compound concentration 1 uM, replicate 1
Each item that follows carries a reported Population Healthy Nuclei (%).
Numbers only; they are read as %.

Here's what some known entries look like.
INSERT INTO measurements (compound, value_observed) VALUES
  ('C=CC(=O)Nc1ccc2[nH]c(=O)n(C3CCN(Cc4ccc(-c5nc6cc[nH]c(=O)c6cc5-c5ccccc5)cc4)CC3)c2c1', 56),
  ('COc1cc(Nc2nccc(-c3cnn4nc(OC)ccc34)n2)cc(C(F)(F)F)c1', 50),
  ('Cc1ccc2c(c1)c1c(n2CCc2ccc(C)nc2)CCN(C)C1 [LATREPIRDINE]', 59);

Look up Population Healthy Nuclei (%) of `CCOC(=O)Nc1cc(-c2ccc(C)c(NS(C)(=O)=O)c2)nn2c(C)nnc12` and report it.
55

Input `C=CC(=O)Nc1cccc(Sc2nc(Nc3ccc(N4CCN(C)CC4)cc3)ncc2Cl)c1` , output reported Population Healthy Nuclei (%).
6

* * *

Each item that follows carries a reported Population Healthy Nuclei (%).
Test system: HEK-293T
Procedure Details: Multiplex assay against HEK293T
Type: toxicity, cell-based
Run Conditions: human, 12 h, 10 µM, compound concentration 10 uM, replicate 1
Respond with the figure and its unit, in that order.

Illustrative cases are given below, each with its answer.
INSERT INTO results (compound, subject_of_test, value_observed) VALUES
  ('O=c1[nH]c2ccccc2n1C1CCN(Cc2ccc(-c3[nH]c4cc5ncnc5cc4nc3-c3ccccc3)cc2)CC1', 'HEK-293T', '50%'),
  ('C=CC(=O)Nc1cccc(Sc2nc(Nc3ccc(N4CCN(C)CC4)cc3)ncc2Cl)c1', 'HEK-293T', '38%'),
  ('CC(C)CC(=O)Nc1[nH]nc2c1CN(C(=O)C1CCN(C)CC1)C2(C)C [PHA-793887]', 'HEK-293T', '69%');

Write down the reported Population Healthy Nuclei (%) (system: HEK-293T) of `CCc1ccc(OCc2ccccc2C(=O)Nc2ccc3nc(C)cc(N)c3c2)cc1.Cl`
0%

// fetch Population Healthy Nuclei (%); item: Cc1cccc(CN2CCN(C(c3ccccc3)c3ccc(Cl)cc3)CC2)c1.Cl.Cl (stereo not drawn) ; system: HEK-293T
40%

With HEK-293T as the test system, provide measured Population Healthy Nuclei (%) for this compound: `CNC(=O)Nc1ccc(-c2nc(N3CC4CCC(C3)O4)c3cnn(C4CCC5(CC4)OCCO5)c3n2)cc1`
7%

Provide Population Healthy Nuclei (%), tested on HEK-293T, for `CC(C)NC(=O)N1CC[C@H](NC2=Nc3cc(F)ccc3N(CC(F)F)c3ccc(Cl)cc32)C1` .
38%

Lab note: HEK-293T assay, enter Population Healthy Nuclei (%) for COC(=O)C1=C(C)NC(C)=C(C(=O)OCCCN2CCC(c3ccccc3)(c3ccccc3)CC2)[C@H]1c1cccc([N+](=O)[O-])c1 [NIGULDIPINE] here
2%

* * *

Tested on: U2OS
Procedure Details: Multiplex assay against U2OS
Assay type: toxicity, cell-based
Run Conditions: human, 24 h, 10 µM, compound concentration 10 uM, replicate 2
Reported Property: Population Normal (%)
Write the value in % as a bare number.

INSERT INTO measurements (molecule, subject_of_test, value_observed) VALUES
  ('Cc1cccc(CN2CCN(C(c3ccccc3)c3ccc(Cl)cc3)CC2)c1.Cl.Cl (stereo not drawn)', 'U2OS', 94);

// Input: `CCc1ccc(OCc2ccccc2C(=O)Nc2ccc3nc(C)cc(N)c3c2)cc1.Cl` . Output its Population Normal (%) only.
68

// Input: CNC(=O)Nc1ccc2c(c1)[C@@]1(CC2)OC(=O)N(CC(=O)N(Cc2ccc(F)cc2)[C@@H](C)C(F)(F)F)C1=O [A-486] . Output its Population Normal (%) only.
90

Name the recorded Population Normal (%) of the molecule listed here: Cc1ccccc1C(c1ccccc1C)N1C2CCC1CC(O)(c1ccccc1)C2 (stereo not drawn)
93

Provide Population Normal (%) value for the following molecule: CC(C)c1noc(N2CCC(COc3ccc(-c4ccc(S(C)(=O)=O)cc4)nc3)CC2)n1 [GSK-1292263]
95

Kindly indicate its recorded Population Normal (%). Item: `O=c1[nH]c2ccccc2n1C1CCN(Cc2ccc(-c3[nH]c4cc5ncnc5cc4nc3-c3ccccc3)cc2)CC1`
85

* * *

Tested on: HEK-293T
Procedure Details: Multiplex assay against HEK293T
Assay type: toxicity, cell-based
Run Conditions: human, 24 h, 1 µM, compound concentration 1 uM, replicate 1
// map Population Pyknosed Nuclei (%) onto a label; ranges lower segment: < 40%; middle segment: ≥ 40% and < 50%; upper segment: ≥ 50%

Solved entries:
INSERT INTO measurements (compound, subject_of_test, assigned_category) VALUES
  ('O=c1cc(N2CCOCC2)oc2c(-c3cccc4c3sc3ccccc34)cccc12', 'HEK-293T', 'middle segment'),
  ('Cc1ccc(C)c(Oc2ccncc2C(=O)N2CCN(C3CC3)c3ccccc32)c1', 'HEK-293T', 'lower segment'),
  ('CCc1ccc(OCc2ccccc2C(=O)Nc2ccc3nc(C)cc(N)c3c2)cc1.Cl', 'HEK-293T', 'upper segment'),
  ('CC1=C(C(=O)Nc2cc3cn[nH]c3cc2F)C(c2ccc(C(F)(F)F)cc2)CC(=O)N1 (configuration not stated)', 'HEK-293T', 'middle segment');

Category of Cc1cccc(CN2CCN(C(c3ccccc3)c3ccc(Cl)cc3)CC2)c1.Cl.Cl (configuration not stated) , please.
upper segment

Class (by measured Population Pyknosed Nuclei (%)) for `COc1cc(Nc2nccc(-c3cnn4nc(OC)ccc34)n2)cc(C(F)(F)F)c1`
upper segment

Which Population Pyknosed Nuclei (%) band matches `Cc1nc(N2CC[C@H](O)C2)ncc1-c1cc(C(F)(F)F)cc2[nH]ncc12` ?
lower segment

Which bin, given its Population Pyknosed Nuclei (%), does `CC(C)Oc1ccccc1C(=O)Nc1ccccc1C(=O)Nc1cccc(S(=O)(=O)C(F)(F)F)c1` occupy?
lower segment

* * *

Test system: Fibroblast
Procedure Details: Incucyte cell viability with human fibroblast; note: filed as whole numbers so only -1 and 0 and 1 occur
Assay type: toxicity, cell-based
Run Conditions: 18 h, 10 µM, compound concentration 10 uM, replicate number 1, timepoint 18 hours
Reported Property: Growth Rate
I'd appreciate a reply containing only the number, no unit.

INSERT INTO results (molecule, subject_of_test, value_observed) VALUES
  ('CC(C)(C)NC[C@H](O)COc1nsnc1N1CCOCC1 [TIMOLOL]', 'Fibroblast', 1),
  ('O=C(N[C@@H](C1CC1)C(F)(F)F)c1cc(-c2cnn3cc(-c4ccc(F)cc4)cnc23)cs1', 'Fibroblast', 1),
  ('COc1ccc(-c2ccc3cc(C(=O)O)ccc3c2)cc1C12CC3CC(CC(C3)C1)C2', 'Fibroblast', 0),
  ('COC(=O)C1=C(C)NC(C)=C(C(=O)OCCCN2CCC(c3ccccc3)(c3ccccc3)CC2)[C@H]1c1cccc([N+](=O)[O-])c1 [NIGULDIPINE]', 'Fibroblast', 0),
  ('COC(=O)C(Cc1ccc(OCCn2c(=O)sc3cc(C(=O)c4ccccc4)ccc32)cc1)C(=O)OC', 'Fibroblast', 1),
  ('Cc1cnc(-c2cc(Cl)ccc2F)cc1-n1c(=O)n(CC(N)=O)c2ccccc21 [Al11]', 'Fibroblast', 0);

Give the reported Growth Rate for this molecule. C[C@H](NC(=O)c1cnc2n1[C@](C)(Cc1ccc(C#N)cc1)C(=O)N2c1cc(Cl)c(F)c(Cl)c1)C(=O)NC1(c2ccccn2)CC1 [BI 1950]
1

Give a short answer stating reported Growth Rate for CNC(=O)c1ccc(Nc2ncc(C(F)(F)F)c(NCc3nccnc3N(C)S(C)(=O)=O)n2)cc1 [DEFACTINIB] .
0
